Reference source: patent US20110065734A1

Exercise: state measured melting point for each of the compounds provided.
Structures can show the parent of a compound that is named as a salt.

Before answering, review these 5 worked examples.
Prompt: Query (compound): C#Cc1cccc(Nc2ncnc3ccc(NC(=O)c4ccc(C(=O)Nc5ccccc5N)nc4)cc23)c1 [[36]] ; field requested: melting point
Completion: 213 to 216 °C

Prompt: Query (compound): Nc1ccccc1NC(=O)c1ccc(COc2ccc3ncnc(Nc4cccc(Br)c4)c3c2)cc1 [[43]] ; field requested: melting point
Completion: 215 to 218 °C

Prompt: Query (compound): Cc1ccc(NC(=O)c2ccc(C(=O)Nc3ccccc3N)nc2)cc1Nc1nccc(-c2cccnc2)n1 [[23]] ; field requested: melting point
Completion: 150.5 to 152.5 °C

Prompt: Query (compound): O=C(NO)c1ccc(C(=O)Nc2cccc(Nc3nc(-c4cccnc4)cs3)c2)cc1 [[17]] ; field requested: melting point
Completion: 205.5 °C

Prompt: Query (compound): C#Cc1cccc(Nc2ncnc3cc(NC(=O)c4cccc(/C=C/C(=O)Nc5ccccc5N)c4)ccc23)c1 [[42]] ; field requested: melting point
Completion: 190 to 194.2 °C

Each compound below has a recorded value; state its melting point.
1. CN(C(=O)c1ccc(C(=O)Nc2ccccc2N)cc1)c1cccc(Nc2nccc(-c3cccnc3)n2)c1 [[30]]
2. O=C(/C=C/c1ccc(C(=O)Nc2cccc(Nc3nc(-c4cccnc4)cs3)c2)cc1)NO [[22]]
3. Nc1ccccc1NC(=O)c1ccc(C(=O)Nc2cccc(Nc3nc(-c4cccnc4)cs3)c2)s1 (as salt: salt) [[28]]

Completion:
["204.6 °C (dec.)", "100.6 °C", "222.3 °C"]

###

Tested on: SKOV3 ovarian carcinoma cell line
Assay: Cellular cytotoxicity assay (Alamar Blue), SKOV3
Type: cell-based
Details: Homo sapiens, SK-OV-3; 72 h; only a range over the listed compounds is given; read-out: Cytotoxicity towards SKOV3 cell line IC50
pIC50: −log10 of the molar value.
VALUE_TYPE: pIC50

Each compound below has a recorded value; state its pIC50.
1. C#Cc1cccc(Nc2ncnc3cc(NC(=O)c4ccc(C(=O)Nc5ccccc5N)nc4)ccc23)c1 [[39]]
2. C#Cc1cccc(Nc2ncnc3ccc(S(=O)(=O)n4ccc(/C=C/C(=O)NO)c4)cc23)c1 [[45]]

Completion:
1. ≤ 6.25
2. ≤ 6.25

Each compound below has a recorded value; state its pIC50.
1. C#Cc1cccc(Nc2ncnc3ccc(NC(=O)c4ccc(C(=O)Nc5ccccc5N)cc4)cc23)c1 [[37]]
2. O=C(/C=C/c1cccc(-c2ccc3ncnc(Nc4ccc(OCc5cccc(F)c5)c(Cl)c4)c3c2)c1)NO [[9]]
3. C#Cc1cccc(Nc2ncnc3cc(NC(=O)c4ccc(C(=O)Nc5ccccc5N)cc4)ccc23)c1 [[41]]

Completion:
1: ≤ 6.25; 2: ≤ 6.00; 3: ≤ 6.25

Each compound below has a recorded value; state its pIC50.
1. C#Cc1cccc(Nc2ncnc3ccc(NC(=O)c4ccc(C(=O)Nc5ccccc5N)s4)cc23)c1 [[38]]
2. Nc1ccccc1NC(=O)c1ccc(-c2ccc3ncnc(Nc4ccc(OCc5cccc(F)c5)c(Cl)c4)c3c2)o1 [[5]]

Completion:
["≤ 6.25", "≤ 6.00"]

###

Test system: SKOV3 ovarian carcinoma cell line
Test: Cellular cytotoxicity assay (Alamar Blue), SKOV3
Type: cell-based
Conditions: Homo sapiens, SK-OV-3, 72 h, read-out: Cytotoxicity towards SKOV3 cell line IC50 (M)
Counter-ions that a name gives are not always drawn.
VALUE_TYPE: IC50

Prompt: Query (compound): O=C(/C=C/c1ccc(-c2ccc3ncnc(Nc4ccc(OCc5cccc(F)c5)c(Cl)c4)c3c2)cc1)NO [[8], hydrochloride monohydrate] ; field requested: IC50
Completion: ≥ 1e-06 M
